Target: hP2X2/3H (Homo sapiens, UniProt P56373+Q9UBL9)
Construct: expressed in transfected cells; host or cells: e.g. HEK293 or 1321N1
Sequence (Q9UBL9 1-471): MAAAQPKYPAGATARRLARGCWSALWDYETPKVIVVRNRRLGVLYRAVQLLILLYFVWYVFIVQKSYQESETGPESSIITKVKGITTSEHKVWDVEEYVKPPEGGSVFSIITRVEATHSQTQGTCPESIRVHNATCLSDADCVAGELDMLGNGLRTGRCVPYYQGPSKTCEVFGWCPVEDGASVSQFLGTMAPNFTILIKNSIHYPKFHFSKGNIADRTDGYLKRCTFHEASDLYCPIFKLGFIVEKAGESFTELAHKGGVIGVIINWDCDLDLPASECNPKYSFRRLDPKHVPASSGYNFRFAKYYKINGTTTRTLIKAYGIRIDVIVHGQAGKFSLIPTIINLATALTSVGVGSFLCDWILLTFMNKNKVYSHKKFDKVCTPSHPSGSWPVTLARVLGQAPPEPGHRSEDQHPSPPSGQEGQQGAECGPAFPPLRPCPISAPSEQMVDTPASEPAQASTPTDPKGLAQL
Sequence (P56373 1-397): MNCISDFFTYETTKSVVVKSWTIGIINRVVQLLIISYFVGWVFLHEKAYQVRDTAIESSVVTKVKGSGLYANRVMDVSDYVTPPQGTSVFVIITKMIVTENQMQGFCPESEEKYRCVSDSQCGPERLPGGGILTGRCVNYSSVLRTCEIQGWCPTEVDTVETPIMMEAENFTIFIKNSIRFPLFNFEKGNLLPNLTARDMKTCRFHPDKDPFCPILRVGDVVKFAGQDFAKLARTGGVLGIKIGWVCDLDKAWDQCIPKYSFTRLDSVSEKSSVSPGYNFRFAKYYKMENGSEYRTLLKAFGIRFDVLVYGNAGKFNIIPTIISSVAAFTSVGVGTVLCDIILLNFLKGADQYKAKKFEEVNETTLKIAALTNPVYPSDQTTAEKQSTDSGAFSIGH
Experiment: Calcium uptake assay (P2X antagonist assay), P2X2/3 heteromer
Format: cell-based
Conditions: Ca influx (calcium uptake assay), hP2X2/3H; read-out: IC50 hP2X2/3H
pIC50: −log10 of the molar value.
Overview of reported pIC50 across a group of compounds:
ENDPOINT_LABEL: pIC50

[
  {
    "COMPOUND": "CCS(=O)(=O)c1cc(C(=O)N[C@H](C)c2ccc(C)nc2)cc(-c2ccc(C)cc2)c1",
    "SUBJECT_OF_TEST": "hP2X2/3H (Homo sapiens, UniProt P56373+Q9UBL9)",
    "MEASUREMENT": "> 7.00"
  },
  {
    "COMPOUND": "Cc1ccc(-c2cc(Oc3nccs3)cc(C(=O)N[C@H](C)c3ccc(C)nc3)c2)cc1",
    "SUBJECT_OF_TEST": "hP2X2/3H (Homo sapiens, UniProt P56373+Q9UBL9)",
    "MEASUREMENT": "> 7.00"
  },
  {
    "COMPOUND": "Cc1ccc(-c2cc(OC(C)CO)cc(C(=O)N[C@H](C)c3ccc(C)nc3)c2)nc1 (some centres unmarked)",
    "SUBJECT_OF_TEST": "hP2X2/3H (Homo sapiens, UniProt P56373+Q9UBL9)",
    "MEASUREMENT": "> 7.00"
  },
  {
    "COMPOUND": "Cc1ccc(-c2cc(Oc3nccs3)cc(C(=O)N[C@H](C)c3cnc(C)nc3)c2)cc1",
    "SUBJECT_OF_TEST": "hP2X2/3H (Homo sapiens, UniProt P56373+Q9UBL9)",
    "MEASUREMENT": "> 7.00"
  },
  {
    "COMPOUND": "Cc1ccc(-c2cc(Oc3nc(C)cs3)cc(C(=O)N[C@H](C)c3ccc(C)nc3)c2)nc1",
    "SUBJECT_OF_TEST": "hP2X2/3H (Homo sapiens, UniProt P56373+Q9UBL9)",
    "MEASUREMENT": "> 7.00"
  },
  {
    "COMPOUND": "Cc1ccc(-c2cc(C(=O)NC(C)c3ccc(Cl)c(S(C)(=O)=O)c3)cc(S(C)(=O)=O)c2)nc1 (centres unmarked)",
    "SUBJECT_OF_TEST": "hP2X2/3H (Homo sapiens, UniProt P56373+Q9UBL9)",
    "MEASUREMENT": "6.30 to 7.00"
  },
  {
    "COMPOUND": "Cc1ccc(-c2cc(C(=O)N[C@H](C)c3ccc(C)nc3)cc(C(O)c3nccs3)c2)c(C#N)c1 (some centres unmarked)",
    "SUBJECT_OF_TEST": "hP2X2/3H (Homo sapiens, UniProt P56373+Q9UBL9)",
    "MEASUREMENT": "> 7.00"
  },
  {
    "COMPOUND": "Cc1ccc(-c2cc(CO)cc(C(=O)NCc3cnc(C)nc3)c2)c(C#N)c1",
    "SUBJECT_OF_TEST": "hP2X2/3H (Homo sapiens, UniProt P56373+Q9UBL9)",
    "MEASUREMENT": "6.30 to 7.00"
  }
]

---

target: hP2X2/3H (Homo sapiens, UniProt P56373+Q9UBL9); construct: expressed in transfected cells; host or cells: e.g. HEK293 or 1321N1; experiment: Calcium uptake assay (P2X antagonist assay), P2X2/3 heteromer; format: cell-based; conditions: Ca influx (calcium uptake assay), hP2X2/3H; read-out: IC50 hP2X2/3H

[
  {
    "COMPOUND": "Cc1ccc(-c2cc(C(=O)NCc3ccc(C)nc3)cc(C(F)(F)F)c2)cc1",
    "IC50": "501 to 1000 nM"
  },
  {
    "COMPOUND": "CCN(CC)CC(O)c1cc(C(=O)N[C@H](C)c2ccc(C)nc2)cc(-c2ccc(C)cc2C#N)c1 (stereo partly shown)",
    "IC50": "100 to 500 nM"
  },
  {
    "COMPOUND": "Cc1ccc(-c2cc(C(=O)N[C@H](CCO)c3ccc(C(F)(F)F)nc3)cc(S(C)(=O)=O)c2)cc1",
    "IC50": "100 to 500 nM"
  },
  {
    "COMPOUND": "Cc1ccc(-c2cc(Oc3ncccn3)cc(C(=O)NCc3cnc(C)nc3)c2)cc1",
    "IC50": "501 to 1000 nM"
  },
  {
    "COMPOUND": "Cc1ccc(-c2cc(C(=O)NCc3ccc(C)nc3)cc(S(=O)(=O)C(C)C)c2)cc1",
    "IC50": "< 100 nM"
  },
  {
    "COMPOUND": "COCCOc1cc(C(=O)NCc2cnc(C)nc2)cc(-c2ccc(C)cc2)c1",
    "IC50": "100 to 500 nM"
  },
  {
    "COMPOUND": "Cc1ccc(-c2cc(C(=O)N[C@H](C)c3cnc(C)nc3)cc(C(O)CO)c2)nc1 (stereo partly shown)",
    "IC50": "100 to 500 nM"
  },
  {
    "COMPOUND": "Cc1ccc(-c2cc(C(=O)N[C@H](CO)c3ccc(C)nc3)cc(S(C)(=O)=O)c2)cc1",
    "IC50": "< 100 nM"
  },
  {
    "COMPOUND": "Cc1ccc(-c2cc(C(=O)NC(C)c3ccc(Cl)cc3Cl)cc(S(C)(=O)=O)c2)nc1 (stereo not shown)",
    "IC50": "> 1000 nM"
  },
  {
    "COMPOUND": "Cc1ccc(-c2cc(OC3CNCC3O)cc(C(=O)N[C@H](C)c3cnc(C)nc3)c2)nc1 (stereo partly shown)",
    "IC50": "> 1000 nM"
  },
  {
    "COMPOUND": "Cc1ccc(-c2cc(C(=O)NCc3ccc(C)nc3)cc(C(O)CN3CCN(C)CC3)c2)cc1 (stereo not shown)",
    "IC50": "501 to 1000 nM"
  },
  {
    "COMPOUND": "Cc1ccc(-c2cc(C(=O)N[C@H](C)c3ccc(C)nc3)cc(C(O)c3nccs3)c2)cc1 (stereo partly shown)",
    "IC50": "< 100 nM"
  },
  {
    "COMPOUND": "COCCOc1cc(C(=O)N[C@H](C)c2cnc(C)nc2)cc(-c2ccc(C)cc2)c1",
    "IC50": "< 100 nM"
  },
  {
    "COMPOUND": "COc1ccc([C@@H](CO)NC(=O)c2cc(-c3ccc(C)cc3)cc(S(C)(=O)=O)c2)cn1",
    "IC50": "< 100 nM"
  },
  {
    "COMPOUND": "Cc1ccc(-c2cc(Oc3nc(C)cs3)cc(C(=O)N[C@H](C)c3ccc(C)nc3)c2)c(C#N)c1",
    "IC50": "< 100 nM"
  },
  {
    "COMPOUND": "Cc1ccc(-c2cc(Oc3nc4ccccc4s3)cc(C(=O)N[C@H](C)c3ccc(C)nc3)c2)c(C#N)c1",
    "IC50": "100 to 500 nM"
  }
]
